# Test system: Human papillomavirus type 1a E7 protein (residues 1-88)
# TEST: HPV1a E7 small-molecule binders, primary screen, biochemical, small-molecule microarray, residues 1-88, 635 nm (AID 1129)
# CONDITION: small-molecule microarray binding, fluorescence 635 nm; higher = more signal
composite z-score values, listed per item
Reply with just the number.

Data request: Request body: readout composite z-score, system Human papillomavirus type 1a E7 protein (residues 1-88), query CN1C(=O)C2C(C1=O)C1C=C(c3ccc(CO)cc3)C2C(c2cccs2)N1Cc1cccc(OC(F)(F)F)c1 (stereo unspecified) . Return the value.
Data returned: 1.25

Others:
Data request: Test system Human papillomavirus type 1a E7 protein (residues 1-88); read-out composite z-score; what value for `C[C@H]1ON(c2ccc(C(=O)OC(C)(C)C)cc2)[C@@H](c2ccc(O)cc2)[C@@H]1C(=O)N1C(=O)OC[C@@H]1c1ccccc1` ?
Data returned: 1.13

---

# TEST: binders of probe aFSTL3 on microarray, primary screen, stem cell growth factor project, biochemical, small-molecule microarray, fluorescence 635/667 (AID 1064);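 note: measures binding of the biotinylated anti-FSTL3 antibody to printed compounds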
# CONDITION: higher = more signal
RECORDED_ENDPOINT: composite z-score
// keep it numeric: no unit symbol after the value

The examples below pair each entry with its known result.
Data request: So what's the measured composite z-score for this one? `COc1cc2c(cc1OC)CN(C(=O)[C@@H]1[C@H]3C(=O)O[C@H](c4ccccc4)[C@H](c4ccccc4)N3[C@H](c3ccccc3OCCO)[C@@]13C(=O)Nc1ccc(C#CC4(O)CCCCCC4)cc13)CC2`
Data returned: -0.0079

Data request: I have this molecule here, `COc1ccc([Si](C)(C)[C@@H]2[C@@H](CCn3cc([C@H](O)c4ccccc4)nn3)O[C@]3(C(=O)N(Cc4ccc(N5CCOC5=O)cc4)c4ccccc43)[C@H]2C)cc1` , and I need its recorded composite z-score.
Data returned: -0.28

***
Data request: Look at this molecule and give its reported composite z-score. `C[C@]1(C(=O)NC2CC2)c2ccccc2C(=O)N(Cc2ccc(OC(F)(F)F)cc2)[C@H]1c1ccc(CO)cc1`
Data returned: 0.652

---

# Tested on: Wnt5a (protein binding on small-molecule microarray)
# TEST: Wnt5a binders on small-molecule microarray, primary screen, biophysical, 635/667 nm fluorescence (AID 1142);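 note: fluorescence read at 667 nm with signal to noise per printed feature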
# CONDITION: 635 nm fluorescence, higher = more signal
RECORDED_ENDPOINT: composite z-score

Study these solved cases before continuing.
Data request: Using the record for `C=C(C(=O)CC[C@H](OC(=O)c1cccnc1)c1cccc(OCCO)c1)C(C)C` , report its composite z-score.
Data returned: -0.13

Data request: I am curious: what composite z-score value has been reported for `[N-]=[N+]=Nc1ccccc1[C@H]1OC(c2ccc(OCCCO)cc2)=N[C@@]1(CCS(=O)(=O)c1ccccc1)C(=O)N1CCCCC1` ?
Data returned: 0.375

Data request: Entry under review: `CC(C)(C)OC(=O)CC[C@]1(C(=O)NCCN2CCOCC2)N=C(c2ccc(OCCCO)cc2)O[C@H]1c1ccccc1` . Reported composite z-score?
Data returned: 0.298

Data request: Using the record for `COCCOC(=O)N1C(=O)[C@@]2(c3cc(C#CC4(O)CCCCCC4)ccc31)[C@H](C(N)=O)[C@H]1C(=O)O[C@H](c3ccccc3)[C@H](c3ccccc3)N1[C@@H]2c1ccccc1OCCO` , report its composite z-score.
Data returned: 0.507

Data request: What does the data say about its composite z-score? Entry: CC1CC/C=C\[C@H]2OC34C=CCN(c5ccc6ccccc6c5)C(=O)[C@H]3N(C(CO)C(C)C)C(=O)[C@@H]4C2C(=O)O1 (stereo partly drawn)
Data returned: -0.257

Data request: Would you kindly share the measured composite z-score for `CCCC[C@@H]1C[C@H]1[C@@H](NC(=O)c1cccnc1)c1ccc(-c2ccccc2)cc1` ?
Data returned: -0.995

Data request: Would you kindly share the measured composite z-score for `COC(=O)[C@@]1(Cc2ccc(OC)cc2)[C@H]2c3cc(C(=O)N4CCCC4)n(CCc4cc5ccccc5[nH]4)c3C[C@H]2CN1C(=O)c1ccccc1` ?
Data returned: 0.409

// switching to the query molecule
Data request: Return reported composite z-score; argument: `O=C(N1CCCCC1)[C@@]1(Cc2ccccc2)COC(c2ccc(OCCCO)cc2)=N1`
Data returned: 1.03

Sourced from PubChem BioAssay
